- experimental_system: uPA (Homo sapiens, UniProt P00749)
- experimental_details: FRET peptide cleavage efficiency with uPA
- Assay type: biochemical
- test_context: t = 60 min; 200 uM linker, 1 ug/ml protease, 37° C., buffer A pH 8.5
Square brackets hold non-standard residues; d marks the D form. Ends that are not written are not given here. Tyr(3-NO2) = N[C@@H](Cc1ccc(O)c([N+](=O)[O-])c1)C(=O)O; 2Abz = Nc1ccccc1C(=O)O
value_kind: % cleavage uPA t = 60 min
Answer as a quantity: numeral, then unit.

// map PASNRRLPLGLAG ([2Abz]PASNRRLPLGLAG[Tyr(3-NO2)]-NH2) [LNK018] to recorded % cleavage uPA t = 60 min (system: uPA (Homo sapiens, UniProt P00749))
0%

// map SGRVLTLRKAGPANLVG ([2Abz]SGRVLTLRKAGPANLVG[Tyr(3-NO2)]-NH2) [LNK012] to recorded % cleavage uPA t = 60 min (system: uPA (Homo sapiens, UniProt P00749))
15%

// map SPLGLAGS ([2Abz]SPLGLAGS[Tyr(3-NO2)]-NH2) [LNK030] to recorded % cleavage uPA t = 60 min (system: uPA (Homo sapiens, UniProt P00749))
0%

// map RSSYYSL ([2Abz]RSSYYSL[Tyr(3-NO2)]-NH2) [LNK076] to recorded % cleavage uPA t = 60 min (system: uPA (Homo sapiens, UniProt P00749))
0%

// map RYGKSAPLGLAG ([2Abz]RYGKSAPLGLAG[Tyr(3-NO2)]-NH2) [LNK027] to recorded % cleavage uPA t = 60 min (system: uPA (Homo sapiens, UniProt P00749))
9%
